system: U-2932; assay: growth inhibition by drug alone (1 - RLU/untreated control) (fraction); higher = stronger inhibition; conditions: 1000 nM; time (day): 4; 177Lu-lilotomab satetraxetan 0 ug/ml
The label depends only on growth inhibition by drug alone: Met if it is at least 0.4, Not met if it is smaller.

Reference set, count: 3
compound=COc1ccc(-c2oc3cc(OC)ccc3c2C(=O)c2ccc(C#N)cc2)cc1 categorylabel="Not met"
compound=CN(C)Cc1c(C(=O)NCCOc2ccc(C(=O)NO)cc2)oc2ccccc12 categorylabel=Met
compound=CCN(CC)C(=S)SSC(=S)N(CC)CC categorylabel=Met

Lab note: next compound to report on.
Ask: Given the entry COc1ccc2c(c1)CCC1C2CCC2(C)C(NCCCCCCN3C(=O)C=CC3=O)CCC12 (stereo not given) , answer whether its growth inhibition by drug alone meets or surpasses 0.4.
Reply: Not met
